Target: T1, Human B7-H4 ECD-Flag-His10 (monomeric) (human, UniProt Q7Z7D3 25-259)
T1 construct: Minimally biotinylated for KinExA; also called hB7H4-ECD-Flag-His10; B7-H4-FLAG
T1 sequence: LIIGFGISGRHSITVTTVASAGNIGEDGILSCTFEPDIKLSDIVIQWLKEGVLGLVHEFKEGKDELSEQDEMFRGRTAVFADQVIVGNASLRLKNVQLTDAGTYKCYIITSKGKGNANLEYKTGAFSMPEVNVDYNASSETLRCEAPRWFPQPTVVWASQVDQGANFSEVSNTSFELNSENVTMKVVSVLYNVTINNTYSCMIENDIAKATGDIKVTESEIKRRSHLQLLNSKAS
Assay: Octet; summary table, rounded from Table 9 (hIgG1-TM)
measurement_label: Kd (nM)
Please give a number only; it is taken to be in nM.

Entry under test: ZY0EOB-F05 human IgG1-TM (antibody, V domains shown) VH: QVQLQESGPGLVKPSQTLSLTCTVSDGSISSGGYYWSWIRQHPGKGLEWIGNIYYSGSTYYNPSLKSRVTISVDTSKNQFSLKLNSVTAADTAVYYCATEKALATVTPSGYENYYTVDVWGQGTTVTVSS VL: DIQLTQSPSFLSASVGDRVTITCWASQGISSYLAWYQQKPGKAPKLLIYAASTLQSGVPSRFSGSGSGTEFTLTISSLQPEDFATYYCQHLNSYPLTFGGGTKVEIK . Its Kd was 13
